Values were extracted from patent US20180185504A1.

Kindly state T 1/2 for each of the entries shown.
# target or system: T1, hPRLR.mmh (soluble monomeric human PRLR) (human)
# T1 construct: soluble monomeric PRLR protein
# T1 chain: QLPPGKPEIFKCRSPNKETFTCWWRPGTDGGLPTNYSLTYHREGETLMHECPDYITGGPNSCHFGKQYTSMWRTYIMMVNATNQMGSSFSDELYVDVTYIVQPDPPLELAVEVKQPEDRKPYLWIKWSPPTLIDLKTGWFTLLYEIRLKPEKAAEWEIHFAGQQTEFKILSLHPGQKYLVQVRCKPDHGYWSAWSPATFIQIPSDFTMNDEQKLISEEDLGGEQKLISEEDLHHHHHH
# assay: SPR (Biacore), antibody capture, 37 C
# Procedure: Measurements were conducted on a T200 Biacore instrument. Kinetic association (kₐ) and dissociation (kd) rate constants were determined by processing and fitting the data to a 1:1 binding model using Scrubber 2.0 curve fitting software.
Numbers only, in min.

{"binder": "H1H6781P (antibody, human IgG1, V domains shown, human IgG1 Fc (H1H)) VH: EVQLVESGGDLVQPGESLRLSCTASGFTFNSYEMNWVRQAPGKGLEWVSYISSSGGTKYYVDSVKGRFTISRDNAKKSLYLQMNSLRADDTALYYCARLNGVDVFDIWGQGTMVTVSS VL: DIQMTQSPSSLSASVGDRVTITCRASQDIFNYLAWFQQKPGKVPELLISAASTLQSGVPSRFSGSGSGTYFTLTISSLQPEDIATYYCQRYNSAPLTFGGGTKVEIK", "T 1/2 / min": 37}

Attention now shifts to the item below.
Note to self: T 1/2 recorded for H1H6967N (antibody, human IgG1, V domains shown, also called H2M6967N) VH: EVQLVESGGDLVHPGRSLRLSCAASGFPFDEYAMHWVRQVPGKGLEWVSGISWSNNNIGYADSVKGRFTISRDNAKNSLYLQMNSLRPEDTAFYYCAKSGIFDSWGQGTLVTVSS VL: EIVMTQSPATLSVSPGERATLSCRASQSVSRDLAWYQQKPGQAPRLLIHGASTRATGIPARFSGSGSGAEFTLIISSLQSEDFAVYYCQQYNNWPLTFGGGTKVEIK was 12.4
